Listed next: entries and their corresponding Kd.
TARGET OR SYSTEM: FGFR2 (Homo sapiens)
Construct: made in house; host or cells: E. coli host derived from BL21, infected with T7 phage
Sequence (P21802 22-821): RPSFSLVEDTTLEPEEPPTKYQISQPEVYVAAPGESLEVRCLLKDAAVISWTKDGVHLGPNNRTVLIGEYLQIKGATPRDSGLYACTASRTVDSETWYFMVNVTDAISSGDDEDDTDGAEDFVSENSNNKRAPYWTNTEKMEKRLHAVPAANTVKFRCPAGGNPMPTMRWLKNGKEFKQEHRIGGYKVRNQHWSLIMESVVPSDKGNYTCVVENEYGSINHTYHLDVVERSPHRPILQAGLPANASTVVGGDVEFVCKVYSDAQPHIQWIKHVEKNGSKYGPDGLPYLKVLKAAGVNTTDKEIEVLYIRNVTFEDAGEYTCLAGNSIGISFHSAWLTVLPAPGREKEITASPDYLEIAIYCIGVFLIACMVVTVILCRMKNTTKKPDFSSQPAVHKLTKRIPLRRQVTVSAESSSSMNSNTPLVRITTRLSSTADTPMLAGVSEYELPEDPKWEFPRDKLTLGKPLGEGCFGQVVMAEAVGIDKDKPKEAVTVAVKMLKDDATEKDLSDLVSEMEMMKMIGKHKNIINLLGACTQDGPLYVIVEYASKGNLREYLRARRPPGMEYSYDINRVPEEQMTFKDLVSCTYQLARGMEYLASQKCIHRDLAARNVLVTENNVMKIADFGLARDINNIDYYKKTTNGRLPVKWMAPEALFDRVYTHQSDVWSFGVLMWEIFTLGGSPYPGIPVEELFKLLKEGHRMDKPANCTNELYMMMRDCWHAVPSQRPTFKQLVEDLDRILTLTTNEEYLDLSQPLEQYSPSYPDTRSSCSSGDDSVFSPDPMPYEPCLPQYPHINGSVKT
ASSAY PROCEDURE: Kinase binding assay (Kd), FGFR2
TEST SETTINGS: 11-point 3-fold dilution, qPCR readout
Field: numeric (nM). Do not append units.

C=CC(=O)Nc1ccc2c(cnn2-c2nc(Nc3ccc(N=S(C)(C)=O)cc3)ncc2Cl)c1 :: 63
CN(C)C/C=C/C(=O)Nc1ccc2c(ccn2-c2nc(Nc3ccc(N=S(C)(C)=O)cc3)ncc2Cl)c1 :: 120
CS(C)(=O)=Nc1ccc(Nc2cc(-c3c[nH]c4ccccc34)ncn2)cc1 :: 3300
CS(C)(=O)=Nc1ccc(Nc2ncc(Cl)c(-n3ncc4cc(N)ccc43)n2)cc1 :: 130
COc1cc(Nc2ncc(C)c(-c3c[nH]c4c(OC)cccc34)n2)ccc1N=S(C)(C)=O :: 6
CCOc1cc(N=S(C)(C)=O)ccc1Nc1ncc(C)c(-c2c[nH]c3c(C)cccc23)n1 :: 3300

Recorded Kd for CCC(=O)Nc1cccc2c1ccn2-c1nc(Nc2ccc(N3CCS(=N)(=O)CC3)cc2)ncc1Cl , please?
79

Recorded Kd for C=CC(=O)Nc1cc(N=S(C)(C)=O)ccc1Nc1ncc(C)c(-c2c[nH]c3ccccc23)n1 , please?
51

Recorded Kd for Cc1cnc(Nc2ccc(N3CCS(=N)(=O)CC3)cc2)nc1-c1c[nH]c2ccccc12 , please?
7

* * *

TARGET OR SYSTEM: FGFR2 (Homo sapiens)
Construct: made in house; host or cells: E. coli host derived from BL21, infected with T7 phage
ASSAY PROCEDURE: Kinase binding assay (Kd), FGFR2
TEST SETTINGS: 11-point 3-fold dilution, qPCR readout
MEASURE: Kd (nM)
Field: numeric (nM). Do not append units.

As a guide, the following entries are already answered.
COc1cc(N=S2(=O)CCN(C)CC2)ccc1Nc1ncc(Cl)c(-c2c[nH]c3ccccc23)n1 [Example 38] :: 92
Cc1ccc2c(-c3nc(Nc4ccc(N5CCS(=N)(=O)CC5)cc4)ncc3C)c[nH]c2c1 [Example 34] :: 39
Cc1cnc(Nc2ccc(N=S(C)(C)=O)nc2)nc1-c1c[nH]c2ccccc12 [Example 23] :: 6

Query compound follows.
Hello, I am looking for reported Kd with FGFR2 (Homo sapiens) for CS(C)(=O)=Nc1cccc(Nc2ncc(Cl)c(-c3c[nH]c4ccccc34)n2)c1 [Example 7] . Could you help?
140

* * *

TARGET OR SYSTEM: FGFR3 (Homo sapiens)
Construct: made in house; host or cells: E. coli host derived from BL21, infected with T7 phage
Sequence (P22607 23-806): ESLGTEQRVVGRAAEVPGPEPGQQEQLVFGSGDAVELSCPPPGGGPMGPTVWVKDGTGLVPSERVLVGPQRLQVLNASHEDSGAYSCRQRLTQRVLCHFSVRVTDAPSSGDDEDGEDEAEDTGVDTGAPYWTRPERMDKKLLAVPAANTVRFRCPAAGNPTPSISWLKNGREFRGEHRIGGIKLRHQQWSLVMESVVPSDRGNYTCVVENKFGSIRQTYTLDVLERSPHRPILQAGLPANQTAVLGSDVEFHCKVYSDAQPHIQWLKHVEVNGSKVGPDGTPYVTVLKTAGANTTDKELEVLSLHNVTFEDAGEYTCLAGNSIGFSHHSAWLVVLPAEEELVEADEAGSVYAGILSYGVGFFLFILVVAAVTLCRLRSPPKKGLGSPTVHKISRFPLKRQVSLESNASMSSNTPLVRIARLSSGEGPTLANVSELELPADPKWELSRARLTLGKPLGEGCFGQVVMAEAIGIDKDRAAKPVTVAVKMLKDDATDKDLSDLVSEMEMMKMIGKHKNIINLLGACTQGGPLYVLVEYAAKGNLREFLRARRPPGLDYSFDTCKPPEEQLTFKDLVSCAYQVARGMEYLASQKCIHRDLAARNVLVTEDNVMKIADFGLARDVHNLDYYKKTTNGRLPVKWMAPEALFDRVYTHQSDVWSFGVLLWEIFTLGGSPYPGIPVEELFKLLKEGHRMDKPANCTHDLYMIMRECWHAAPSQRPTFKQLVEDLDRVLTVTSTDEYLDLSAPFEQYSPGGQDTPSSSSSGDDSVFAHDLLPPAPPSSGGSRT
ASSAY PROCEDURE: Kinase binding assay (Kd), FGFR3
TEST SETTINGS: 11-point 3-fold dilution, qPCR readout
MEASURE: Kd (nM)
Field: numeric (nM). Do not append units.

Cc1cnc(Nc2ccc(N=S(C)(C)=O)cc2)nc1-n1ccc2ccccc21 [Example 14] :: 170
CS(C)(=O)=Nc1cccc(Nc2ncc(Cl)c(-c3c[nH]c4ccccc34)n2)c1 [Example 7] :: 40
COc1cc(S(C)(=N)=O)ccc1Nc1ncc(Cl)c(-n2ccc3ccccc32)n1 (stereo not drawn) [Example 41] :: 6000
N=S(=O)(c1ccc(Nc2ncc(Cl)c(-c3c[nH]c4ccccc34)n2)cc1)C1CC1 (stereo not drawn) [Example 47] :: 37

Hello, I am looking for reported Kd with FGFR3 (Homo sapiens) for CCC(=O)Nc1cccc2c1ccn2-c1nc(Nc2ccc(N=S(C)(C)=O)cc2)ncc1Cl [Example 77] . Could you help?
130

Hello, I am looking for reported Kd with FGFR3 (Homo sapiens) for CS(C)(=O)=Nc1ccc(Nc2ncc(Cl)c(-n3ccc4c(N)cccc43)n2)cc1 [Example 79] . Could you help?
87

* * *

TARGET OR SYSTEM: FGFR3 (V555M) (Homo sapiens, UniProt P22607, V555M)
Construct: made in house; host or cells: E. coli host derived from BL21, infected with T7 phage
Sequence (P22607 23-806 V555M): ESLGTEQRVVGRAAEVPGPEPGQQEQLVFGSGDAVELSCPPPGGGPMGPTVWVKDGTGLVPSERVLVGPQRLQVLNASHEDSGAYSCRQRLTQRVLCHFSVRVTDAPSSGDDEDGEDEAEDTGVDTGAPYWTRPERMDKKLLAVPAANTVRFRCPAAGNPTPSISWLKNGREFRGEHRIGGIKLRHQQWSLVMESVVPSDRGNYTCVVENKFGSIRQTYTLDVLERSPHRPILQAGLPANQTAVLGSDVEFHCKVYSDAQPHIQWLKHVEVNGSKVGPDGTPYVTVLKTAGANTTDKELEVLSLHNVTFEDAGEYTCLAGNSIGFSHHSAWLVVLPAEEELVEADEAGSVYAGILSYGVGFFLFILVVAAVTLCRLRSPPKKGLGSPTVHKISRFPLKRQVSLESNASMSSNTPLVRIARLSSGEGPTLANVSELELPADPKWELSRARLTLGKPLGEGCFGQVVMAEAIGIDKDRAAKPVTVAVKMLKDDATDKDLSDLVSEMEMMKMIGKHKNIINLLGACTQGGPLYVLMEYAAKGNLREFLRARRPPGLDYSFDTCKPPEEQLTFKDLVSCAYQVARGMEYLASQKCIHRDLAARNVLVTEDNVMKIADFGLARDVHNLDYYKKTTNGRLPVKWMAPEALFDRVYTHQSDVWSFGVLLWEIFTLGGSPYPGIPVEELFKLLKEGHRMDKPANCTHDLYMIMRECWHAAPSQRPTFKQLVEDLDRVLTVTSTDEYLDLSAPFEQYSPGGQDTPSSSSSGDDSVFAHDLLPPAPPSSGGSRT
ASSAY PROCEDURE: Kinase binding assay (Kd), FGFR3 (V555M)
TEST SETTINGS: 11-point 3-fold dilution, qPCR readout
Kd under 3 nM gets met, anything at or over 3 nM gets not met.

Use the examples below as a reference point.
CN(C)C/C=C/C(=O)Nc1ccc2c(ccn2-c2nc(Nc3ccc(N=S(C)(C)=O)cc3)ncc2Cl)c1 :: not met
C=CC(=O)Nc1ccc2c(c1)c(C)cn2-c1nc(Nc2ccc(N=S(C)(C)=O)c(F)c2)ncc1Cl :: met
CCC(=O)Nc1cccc2c1ccn2-c1nc(Nc2ccc(N=S(C)(C)=O)cc2)ncc1Cl :: not met
C=CC(=O)Nc1cccc2c1ccn2-c1nc(Nc2ccc(N3CCS(=N)(=O)CC3)cc2)ncc1Cl :: met

Quick check: Kd of C=CC(=O)Nc1cc(N=S(C)(C)=O)ccc1Nc1ncc(C)c(-c2c[nH]c3ccccc23)n1 under 3 nM?
not met

* * *

TARGET OR SYSTEM: FGFR3 (V555M) (Homo sapiens, UniProt P22607, V555M)
Construct: made in house; host or cells: E. coli host derived from BL21, infected with T7 phage
ASSAY PROCEDURE: Kinase binding assay (Kd), FGFR3 (V555M)
TEST SETTINGS: 11-point 3-fold dilution, qPCR readout
MEASURE: Kd (nM)
Field: numeric (nM). Do not append units.

Cc1cnc(Nc2ccc(N=S(C)(C)=O)cc2)nc1-c1c[nH]c2cc(F)ccc12 [Example 29] :: 4
CCC(=O)Nc1ccc2c(ccn2-c2nc(Nc3ccc(N=S(C)(C)=O)cc3)ncc2Cl)c1 [Example 68] :: 24
CS(C)(=O)=Nc1ccc(Nc2cc(-c3c[nH]c4ccccc34)ncn2)cc1 [Example 12] :: 57
COc1cc(Nc2ncc(C)c(-c3c[nH]c4ccccc34)n2)ccc1N=S(C)(C)=O [Example 26] :: 1
CCC(=O)Nc1ccc2c(ccn2-c2nc(Nc3ccc(N4CCS(=N)(=O)CC4)cc3)ncc2Cl)c1 [Example 73] :: 18

Recorded Kd for C=CC(=O)Nc1ccc2c(-c3nc(Nc4ccc(N=S(C)(C)=O)cc4)ncc3Cl)cn(C)c2c1 [Example 92] , please?
3

Recorded Kd for CCN1CCS(=O)(=Nc2ccc(Nc3ncc(Cl)c(-c4c[nH]c5ccccc45)n3)c(OC)c2)CC1 [Example 39] , please?
6
